# Test system: Leptosphaeria nodorum (LEPTNO)
# Test Details: In vitro fungitoxicity of hydrazones with and without copper towards Leptosphaeria nodorum (Example 26)
# Format: cell-based
# Measurement Parameters: Parastagonospora nodorum, 72 h, copper-minus medium; test compound Concn. 0.05 μg/mL; 72 h at 25° C.; read-out: LEPTNO % Inhn. Minus Copper Observed
Entry flag: Condition met if inhibition of growth at 0.05 µg/mL reaches 3%; Condition not met if it does not.

Here's what some known entries look like.
INSERT INTO measurements (smiles_input, answer_label) VALUES
  ('Cc1cccc(C(=O)N/N=C/c2cc(Cl)ccc2O)c1', 'Condition met'),
  ('C/C(=N\NC(=O)c1ccccc1Br)c1cc(Br)cc(Br)c1O', 'Condition not met'),
  ('Cc1cccc(C(=O)N/N=C/c2cc(C(F)(F)F)ccc2O)c1', 'Condition met'),
  ('C/C(=N\NC(=O)c1ccccc1C)c1cc(Br)cc(Br)c1O', 'Condition not met'),
  ('COc1cccc(/C(C)=N/NC(=O)c2ccccc2Cl)c1O', 'Condition not met'),
  ('C/C(=N\NC(=O)c1ccc(Cl)cc1)c1cc(C)ccc1O', 'Condition met');

Check if inhibition of growth at 0.05 µg/mL >= 3% (inclusive). Item: O=C(N/N=C/c1cccc(C(F)(F)F)c1O)c1ccccc1
Condition met

Threshold query (inhibition of growth at 0.05 µg/mL >= 3%) on O=C(N/N=C/c1c(C(F)(F)F)ccc(Cl)c1O)c1cccc(Cl)c1
Condition met

Decide: inhibition of growth at 0.05 µg/mL of C/C(=N\NC(=O)c1ccccc1Br)c1cc(C(F)(F)F)ccc1O >= 3%?
Condition met

Does the reported inhibition of growth at 0.05 µg/mL for COc1ccc(C(=O)N/N=C(\C)c2cccc(Cl)c2O)cc1 fall at or above the 3% mark?
Condition not met

Textbook exercise: given the entry O=C(N/N=C/c1cc(C(F)(F)F)cc(C(F)(F)F)c1O)c1ccccc1C(F)(F)F , state whether its inhibition of growth at 0.05 µg/mL is greater than or equal to 3%.
Condition not met

Dear colleague, could you confirm whether COc1cccc(/C(C)=N/NC(=O)c2cccc(Cl)c2)c1O has inhibition of growth at 0.05 µg/mL at or above 3%?
Condition not met

Test whether the molecule O=C(N/N=C/c1ccc(Cl)cc1O)c1cccc(F)c1 records inhibition of growth at 0.05 µg/mL of 3% or higher.
Condition met

Does the molecule C/C(=N\NC(=O)c1ccccc1Br)c1ccc(Cl)cc1O have recorded inhibition of growth at 0.05 µg/mL that is 3% or more?
Condition not met

Data provenance: patent US20120010075A1
